Tested on: A549 NSCLC
Assay: NCI tumour cell line growth inhibition, 48 h
measure: TGI

For each of the compounds below, note its TGI.
1. CCN(CC)C(=O)c1cccc2c(OC)ccc(OC)c12
2. COc1cccc(C2CC(C)(O)Oc3cc4c(cc32)OCO4)c1 (configuration not stated)
3. Cc1ccc2[nH]c3c(c2c1)C1CCC(C(C)(C)C)CC1C1C(=O)N(c2ccc(Oc4ccccc4)cc2)C(=O)C31 (configuration not stated)
4. O=C(c1ccccc1)[C@H]1Nc2ccc(Cl)cc2[C@H]2c3ccccc3O[C@H]21
5. CC(C)NC1CCCCC2c3ccccc3C12O (configuration not stated)
6. CCOC(=O)c1nc(SC)sc1NC(=O)c1ccc(OC)cc1
7. Cc1ccc(S(=O)(=O)N(CC(O)COc2ccccc2)c2c(F)c(F)c(F)c(F)c2F)cc1 (configuration not stated)

Result:
1: > 100 µM; 2: > 100 µM; 3: > 100 µM; 4: 30.2 µM; 5: > 100 µM; 6: > 100 µM; 7: 36.8 µM

For each of the compounds below, note its TGI.
1. CN(C(=O)Cc1cc(Cl)c(Cl)cc1NC(=O)CCCN)[C@H]1CCCC[C@@H]1N1CCCC1
2. COC(=O)/C(=C(/C)c1ccco1)P(=O)(OC)OC
3. O=C(CSc1nc2ccccc2c(=O)n1-c1ccccc1)N=Nc1c(O)[nH]c2ccc(Br)cc12
4. NCCNCCNCc1c2ccccc2c(CNCCNCCN)c2ccccc12
5. COc1cc2ncnc(Nc3cccc(Br)c3)c2cc1OC
6. CCCCCCCCCCCC(c1ccccc1)[N+](C)(C)C (configuration not stated)

Result:
["83.1 µM", "> 100 µM", "10.9 µM", "> 100 µM", "> 69.1 µM", "3.97 µM"]

For each of the compounds below, note its TGI.
1. O=S(=O)(c1ccccc1)N1CCC1c1ccccc1 (configuration not stated)
2. CCOP(=O)(OCC)C(C(=O)OC)C(=O)C(=O)Nc1cccc([N+](=O)[O-])c1 (configuration not stated)

Result:
["> 100 µM", "> 100 µM"]

For each of the compounds below, note its TGI.
1. CCOC(=O)c1ccc(N2C(=O)/C(=C/c3ccc(N(CCC#N)CCC#N)cc3)N=C2c2cc([N+](=O)[O-])ccc2Cl)cc1
2. Clc1ccc(NCNC2Nc3ccccc3N2)cc1Cl
3. COc1ccc(-c2cc(=O)c3c(C)ccnc3[nH]2)cc1
4. CN(N=O)C(=O)NC(CCCCNC(=O)OCc1ccccc1)C(=O)OCc1ccccc1 (configuration not stated)
5. C[C@]12CC[C@H]3[C@@H](CC=C4C[C@@H](N5CCCC5)CC[C@@]43C)[C@@H]1C/C(=C\c1ccc([N+](=O)[O-])cc1)[C@@H]2O
6. NCC(=O)N[C@H]1c2ccsc2/C(=N/O)[C@H]1O
7. CSC(=Nc1ccccc1)c1c(C)[nH]n(-c2ccccc2)c1=O

Result:
["> 100 µM", "> 100 µM", "> 100 µM", "> 100 µM", "32.6 µM", "> 100 µM", "> 100 µM"]

====

Tested on: 786-0 renal
Assay: NCI tumour cell line growth inhibition, 48 h; in the data active means GI50 below about 0.43 µM; inactive means the rest
The reply should be one of these categories: active, inactive

Worked cases, answers included:
COc1cc(-c2csc(NC(=O)Nc3ccc(Cl)cc3)n2)cc(OC)c1OC = inactive
CCOC(=O)c1sc2nc(=S)[nH]c(NC(N)=S)c2c1C = inactive
CCCCCCCCCCCC(c1ccccc1)[N+](C)(C)C (configuration not stated) = inactive
O=c1cc(-c2cccc(Cl)c2)[nH]c2cc3c(cc12)OCO3 = inactive
C/C(=C1\C(=O)Nc2ccccc21)c1cccc(/C(C)=C2/C(=O)Nc3ccccc32)n1 = inactive

Problem: Assay result, entry c1ccc2[nH]c(-c3ccc(Nc4nc(N5CCCC5)nc5[nH]ncc45)cc3)nc2c1 — outcome?
Result: active

Problem: Assay result, entry N#CSc1c[nH]c2ccc(/C=C/C(=O)/C=C(O)/C=C/c3ccc4[nH]cc(SC#N)c4c3)cc12 — outcome?
Result: inactive

Problem: Assay result, entry Clc1ccc2c(NC3CCC(NC4CCCCC4)CC3)ccnc2c1 (configuration not stated) — outcome?
Result: inactive

Problem: Assay result, entry CN1CCN(c2ccc3nc(-c4[nH]ncc4Nc4ncnc5[nH]ccc45)[nH]c3c2)CC1 — outcome?
Result: active

Problem: Assay result, entry COc1cccc2c1C(=O)c1c(O)c3c(c(O)c1C2=O)C[C@@](O)(C(=O)CO)C[C@@H]3OC1CC(N2CCOCC2)C(O)C(C)O1 (some centres not stated) — outcome?
Result: active

Problem: Assay result, entry CC[O-].CC[O-].[O-]c1ccccc1C=NC12CC3CC(CC(C3)C1)C2.[O-]c1ccccc1C=NC12CC3CC(CC(C3)C1)C2.[Ti+4] — outcome?
Result: inactive

Problem: Assay result, entry CC(=O)Nc1ccc(CC[C@H]2CCC/C=C/[C@@H]3C[C@H](O)C[C@H]3[C@H](O)/C=C/C(=O)O2)cc1 — outcome?
Result: active

====

Provide the recorded TGI for the entries that follow.
Test system: MCF7 breast
Test: NCI tumour cell line growth inhibition, 48 h
Answers are plain numbers, in µM.

Here is how some compounds turned out for TGI.
CN1CCN(c2ccc3nc(-c4[nH]ncc4Nc4ncnc5[nH]ccc45)[nH]c3c2)CC1 = 11.2
O=C(c1ccccc1)c1nc2ccc(Cl)cc2cc1C(Br)Br = 1.96
C=CCn1c(SCC(=O)Nc2ccc(C(=O)/C=C/c3cc(OC)c(OC)c(OC)c3)cc2)nnc1-c1cc(OC)c(OC)c(OC)c1 = 10.5

Shifting focus to the compound that follows.
Problem: Which TGI value is on record for CN1CCC2(CC1)C(=O)Nc1cc(NC(=O)c3ccc4c(c3)C[C@@H]3C(C)(C)[C@H](O)[C@H](F)C[C@@]3(C)O4)ccc12 ?
Result: 21.4

====

System: SK-OV-3 ovarian
Experiment: NCI tumour cell line growth inhibition, 48 h
Provide the recorded TGI for the entries that follow.

CC(C)(Sc1cc(C(C)(C)C)c(O)c(C(C)(C)C)c1)Sc1cc(C(C)(C)C)c(O)c(C(C)(C)C)c1 = > 100 µM
CCN(CC)CC(C(=O)Nc1c(C)cccc1C)/C(C)=N\NC(=S)NN (stereo not drawn) = > 100 µM
O=C(Nc1ccc(Cl)cc1)c1cc(S(=O)(=O)Nc2nc3ncccc3[nH]2)c(SSc2cc(Cl)c(C(=O)Nc3ccc(Cl)cc3)cc2S(=O)(=O)Nc2nc3ncccc3[nH]2)cc1Cl = > 100 µM
C/C(=C1\C(=O)Nc2ccccc21)c1cccc(/C(C)=C2/C(=O)Nc3ccccc32)n1 = > 100 µM
Cc1cc(C)c2c(c1)CSCc1cc(C)cc(C)c1-2 = > 100 µM
O=C1CC(Nc2ccccc2)c2c(Cl)sc(Cl)c21 (stereo not drawn) = 26.3 µM
OC1CCN2Cc3ccccc3N=C12 (stereo not drawn) = > 100 µM
O=C(O)c1ccccc1NS(=O)(=O)c1ccc(Cl)cc1 = > 100 µM

For each of the compounds below, note its TGI.
1. CC(=O)N1N=C(c2ccccc2)NC(=O)C1c1cc(C)c(O)c(C)c1 (stereo not drawn)
2. C[C@]12C(=O)OC[C@H](c3ccccc3)N1C(=O)N(Cc1ccccc1)[C@@H]2CO
3. CCOc1ccc2c(c1)[n+]([O-])c(-c1ccccc1)c(N)[n+]2[O-]
4. CC[O-].CC[O-].[O-]c1ccccc1C=NC12CC3CC(CC(C3)C1)C2.[O-]c1ccccc1C=NC12CC3CC(CC(C3)C1)C2.[Ti+4]
5. COC1CCC(O)C(CO)O1 (stereo not drawn)
6. CCCCCOC(=O)c1c(C)[nH]c(/C=C2\N=C(c3ccc[nH]3)C=C2OC)c1C
7. COC(=O)[C@H](Cc1ccccc1)NC(=O)N(CCN(CCC#N)C(=O)N[C@H](C(=O)OC)C(C)C)c1ccccc1
8. CN(C)C(=C1C(Br)=C(Br)C(Br)=C1Br)N(C)C

Result:
1: 34.3 µM; 2: > 100 µM; 3: > 100 µM; 4: > 100 µM; 5: > 100 µM; 6: 2.38 µM; 7: > 100 µM; 8: > 100 µM

For each of the compounds below, note its TGI.
1. Cc1ccc(NC(=O)c2ccoc2)cc1-c1ccc(C(=O)NCC2CC2)cc1
2. CN(N=O)C(=O)NC(CCCCNC(=O)OCc1ccccc1)C(=O)OCc1ccccc1 (stereo not drawn)

Result:
1: > 25 µM; 2: > 100 µM

For each of the compounds below, note its TGI.
1. CC(=O)Nc1ccc(CC[C@H]2CCC/C=C/[C@@H]3C[C@H](O)C[C@H]3[C@H](O)/C=C/C(=O)O2)cc1
2. c1ccc(CCCN2C3CCC2CN(CCOC(c2ccccc2)c2ccccc2)C3)cc1
3. CCN(CC)c1c(-c2c(OC(C)C)c(=O)c2=O)c(=O)n2ccsc2c1OC(C)=O
4. CCOC(=O)c1nc2ccccc2nc1Nc1cc(OC)c(OC)c(OC)c1
5. C#CCOC(=O)C=[N+]=[N-]
6. CN(c1ccccc1)c1nc(=[N+](C)C)ss1

Result:
1: > 100 µM; 2: 29.3 µM; 3: > 100 µM; 4: > 100 µM; 5: > 10 µM; 6: > 100 µM

For each of the compounds below, note its TGI.
1. CCOC(=O)N1CCC2(CC1)C[C@](Sc1ccccc1)(C(C)=O)[C@H](C)O2
2. COc1nc2ncc([C@@H](OC(C)=O)[C@@H](COC(C)=O)OC(C)=O)nc2c(=O)n1C

Result:
> 100 µM
> 100 µM

For each of the compounds below, note its TGI.
1. CCOc1ccc2c(c1)[n+]([O-])c(C(N)=O)c(N)[n+]2[O-]
2. CN1CCC2(CC1)C(=O)Nc1cc(NC(=O)c3ccc4c(c3)C[C@@H]3C(C)(C)[C@H](O)[C@H](F)C[C@@]3(C)O4)ccc12
3. O=NN(CC1(O)OCC(O)C(O)C1O)C(Cc1c[nH]c2ccccc12)C(=O)O (stereo not drawn)

Result:
1: > 100 µM; 2: 27.3 µM; 3: > 100 µM

For each of the compounds below, note its TGI.
1. CCO/C(O)=c1/s/c(=C2/SC(=S)N(c3ccc(C)cc3)C2=O)n(-c2ccccc2)c1=N
2. CC1=NN(c2ccccc2)C(=O)/C1=C1\SC(c2ccccc2)(c2ccccc2)c2ccccc21
3. CC(C)C(Sc1nc(-c2ccccc2)c(-c2ccccc2)[nH]1)C(=O)N/N=C/c1ccc(Cl)cc1 (stereo not drawn)
4. COC(=O)/C(=C(/C)c1ccco1)P(=O)(OC)OC
5. COc1ccc(-c2nn3ncccc3c2-c2ccnc(Nc3ccc(F)c(F)c3)n2)cc1
6. O=C1C2C3SC(c4cc5ccccc5cc43)C2C(=O)N1c1ccccc1 (stereo not drawn)
7. CCCCOC(=O)Nc1ccc(S(=O)(=O)Nc2c(Cl)cccc2Cl)cc1
8. CC1=C[C@H](C[C@]2(C)c3c(c4c(C)cccc4oc3=O)O[C@@H]2C)OC1=O

Result:
1. > 76 µM
2. > 100 µM
3. 67 µM
4. > 100 µM
5. > 25 µM
6. > 100 µM
7. 75.3 µM
8. > 100 µM

Problem: Which TGI value is on record for C=C1C(=O)O[C@@H]2C[C@@]3(C)CCC[C@H](C)C3=C[C@H]12 (tested in a mixture with another compound) ?
Result: 22.7 µM
